Assign MIC without PB/MIC + PB to each entry below.
- Test system: Acinetobacter sp. (H064200250)
- ASSAY INFO: MIC without and with sub-inhibitory polymyxin B (Example 4)
- Format: cell-based
- MEASUREMENT SETUP: Acinetobacter spp. H064200250 (OXA51); +[…] PB; 2nd experiment

// MIC without PB/MIC + PB lookup, key: `Cc1c(-c2ccc(N)cc2)c(F)cn2c(=O)c(C(=O)O)cc(C3CC3)c12`
≥512

Same thing, different molecule: `Cc1c(-c2cc(F)c(N)cc2F)ccn2c(=O)c(C(=O)O)cc(C3CC3)c12`
≥128

Same lookup for `Cc1c(-c2ccc(N)c(F)c2)ccn2c(=O)c(C(=O)O)cc(C3CC3)c12` , please.
≥512

* * *

Record form. Attribute: MBC. Fill in for each entry.
- Test system: A. baumannii NCTC 13301
- ASSAY INFO: Preliminary MBC without and with sub-inhibitory polymyxin B (Example 4)
- Format: cell-based, Acinetobacter baumannii
- MEASUREMENT SETUP: Acinetobacter baumannii, NCTC13301, read-out: MBC +[…] PB
Provide the reading as a plain figure in µg/mL.

Can you share its MBC? I mean this molecule: Cc1c(-c2ccc(CN)cc2)ccn2c(=O)c(C(=O)O)cc(C3CC3)c12 [Compound 5]
1

Do the same for Cc1c(-c2ccc(N)c(F)c2)ccn2c(=O)c(C(=O)O)cc(C3CC3)c12 [Compound 1] please
0.06

Field entry: Cc1c(-c2ccc(N)cc2)c(F)cn2c(=O)c(C(=O)O)cc(C3CC3)c12 [Compound 7]
0.06

* * *

- Tested on: A. baumannii A390
- ASSAY INFO: MIC without and with sub-inhibitory polymyxin B (Example 4)
- Type: cell-based, Acinetobacter baumannii
- MEASUREMENT SETUP: A. baumannii A390; +0.06 μg/ml PB; 2nd experiment
OBSERVATION TYPE: MIC without PB/MIC + PB

# query: MIC without PB/MIC + PB | item Cc1c(-c2cc(Cl)c(N)c(Cl)c2)ccn2c(=O)c(C(=O)O)cc(C3CC3)c12 [Compound 3] | system: A. baumannii A390
≥256

Now try Cc1c(-c2cc(F)c(N)cc2F)ccn2c(=O)c(C(=O)O)cc(C3CC3)c12 [Compound 2] .
≥512

Try this compound too: Cc1c(-c2ccc(N)c(F)c2)ccn2c(=O)c(C(=O)O)cc(C3CC3)c12 [Compound 1]
≥512

* * *

- Tested on: A. baumannii J2
- ASSAY INFO: MIC without and with sub-inhibitory polymyxin B (Example 4)
- Assay type: cell-based, Acinetobacter baumannii
- MEASUREMENT SETUP: A. baumannii J2; +[…] PB; 2nd experiment
OBSERVATION TYPE: MIC without PB/MIC + PB

For the compound shown here, Cc1c(-c2cc(F)c(N)cc2F)ccn2c(=O)c(C(=O)O)cc(C3CC3)c12 [Compound 2] , give the reported MIC without PB/MIC + PB.
≥128

Also Cc1c(-c2cc(Cl)c(N)c(Cl)c2)ccn2c(=O)c(C(=O)O)cc(C3CC3)c12 [Compound 3] ?
≥1024

Cc1c(-c2ccc(N)cc2)ccn2c(=O)c(C(=O)O)cc(C3CC3)c12 [Compound 8] , same question.
≥128

Try this compound next: Cc1c(-c2ccc(N)cc2)c(F)cn2c(=O)c(C(=O)O)cc(C3CC3)c12 [Compound 7]
≥128

# repeat for Cc1c(-c2ccc(N)c(F)c2)ccn2c(=O)c(C(=O)O)cc(C3CC3)c12 [Compound 1]
≥512
